Test system: STK16
Details: concentration: 1 μM, replicates: in singlicate; n = 1;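 also: KINOMEscan kinase panel screen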
measuredParameter: %Inh (%)

INSERT INTO assay_data (compound, units, testvalue) VALUES
  ('Cc1cccc(-c2cc(Nc3ccncc3)c3ccccc3n2)n1 [GSK223675]', '%', 19),
  ('COc1cc2nccc(Nc3ccc(NC(=O)c4ccc(C)cc4)c(O)c3)c2cc1OC.Cl [GW440132]', '%', 0),
  ('O=C(Nc1ccccc1)Nc1cccc(Oc2ccc3nccn3n2)c1', '%', 0),
  ('Cn1ccc2ncnc(Oc3ccc(Nc4nc5ccccc5[nH]4)cc3)c21', '%', 15),
  ('O=C(Nc1n[nH]c2cc(-c3cccc(F)c3F)ccc12)C1CC1 [SB-733894]', '%', 12),
  ('Nc1ncnc2[nH]c(-c3ccccc3)nc12 [AH5015]', '%', 0);

---

%Inh reference
System: PIM3
Details: concentration: 1 μM, replicates: in singlicate; n = 1
measuredParameter: %Inh (%)

INSERT INTO measurements (compound, units, testvalue) VALUES
  ('COc1cc2ncnc(Nc3ccc4nc(-c5ccccc5)[nH]c4c3)c2cc1OC.Cl [GW282450]', '%', 0),
  ('COC(=O)c1c(-c2ccccc2)c2cc(OC)ccc2c(=O)n1Cc1ccccc1', '%', 20),
  ('Cc1cccc(-c2nc(-c3ccc(S(C)(=O)=O)cc3)sc2-c2ccnc(NCCc3ccccc3)c2)c1', '%', 0),
  ('Cn1ccc2ncnc(Oc3ccc(Nc4nc5ccccc5[nH]4)cc3)c21', '%', 0),
  ('Cc1ccc(NC(=O)Nc2cccc(Cl)c2)cc1-c1ccc(C(=O)Nc2ccncc2)cc1 [GSK1398468]', '%', 0),
  ('Cc1csc(-c2nc(Nc3ccncc3)c3ccccc3n2)n1 [GW869640]', '%', 17),
  ('Cl.Oc1ccc(-c2nc(-c3ccccc3)[nH]c2-c2ccncc2)cc1 [SB-428218]', '%', 42),
  ('CC(=O)Nc1nc2cnc(Nc3cc(NC(=O)c4cccc(CCC#N)c4)ccc3C)nc2s1', '%', 9),
  ('Cc1cccc(-c2nc(Nc3ccncc3)c3ccccc3n2)n1 [GW855857]', '%', 0),
  ('Cc1cccc(-c2nc(Nc3ccc4[nH]ncc4c3)c3ccccc3n2)n1 [GW857175]', '%', 0),
  ('CN(C)CCN(C)C(=O)c1cc(-c2ccncc2)c(-c2ccc(Cl)c(O)c2)o1.Cl.Cl [SB-710397]', '%', 0),
  ('O=C1NC(=O)C(N2CCc3ccccc32)=C1c1ccccc1Cl [SB-373598]', '%', 7),
  ('COc1ccc(C2=C(Nc3cccc(C(=O)O)c3)C(=O)NC2=O)cc1 [SB-390765]', '%', 11),
  ('CC1=C(C(=O)Nc2cc3cn[nH]c3cc2F)C(c2ccc(C(F)(F)F)cc2)CC(=O)N1 (stereo not drawn) [GSK429286]', '%', 0),
  ('COc1ccccc1CNC(=O)c1cc(C(=O)c2ccccc2C)c[nH]1 [GSK364507]', '%', 0),
  ('Cc1cccc(-c2nc(Nc3cccc(C(N)=O)c3)c3ccccc3n2)n1 [GW876019]', '%', 4),
  ('O=C(Nc1n[nH]c2nc(-c3nccs3)c(Br)cc12)C1CC1 [SB-742251]', '%', 0),
  ('Nc1nc(-c2nccs2)c(-c2ccnc3ccccc23)s1 [GW693542]', '%', 0);
